# target system: Potassium voltage-gated channel subfamily KQT member 1 (Cavia porcellus)
# Sequence (O70344 whole entry): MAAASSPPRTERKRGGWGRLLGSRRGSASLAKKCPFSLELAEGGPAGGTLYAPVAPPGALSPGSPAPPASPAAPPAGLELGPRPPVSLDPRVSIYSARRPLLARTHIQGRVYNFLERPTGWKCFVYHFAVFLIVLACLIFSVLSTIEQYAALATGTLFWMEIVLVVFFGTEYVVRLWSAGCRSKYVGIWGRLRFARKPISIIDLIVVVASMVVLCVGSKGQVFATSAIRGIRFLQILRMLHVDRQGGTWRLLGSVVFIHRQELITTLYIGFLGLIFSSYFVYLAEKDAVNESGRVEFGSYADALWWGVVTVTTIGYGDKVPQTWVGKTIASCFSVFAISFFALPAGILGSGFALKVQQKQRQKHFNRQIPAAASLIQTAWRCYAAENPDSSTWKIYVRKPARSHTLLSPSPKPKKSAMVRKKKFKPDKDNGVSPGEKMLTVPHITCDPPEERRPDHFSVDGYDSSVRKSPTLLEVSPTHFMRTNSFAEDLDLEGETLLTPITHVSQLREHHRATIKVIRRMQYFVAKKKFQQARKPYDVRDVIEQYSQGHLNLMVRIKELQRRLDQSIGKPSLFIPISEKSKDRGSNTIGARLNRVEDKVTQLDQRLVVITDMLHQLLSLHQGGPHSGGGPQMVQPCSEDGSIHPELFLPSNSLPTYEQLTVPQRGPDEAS
# assay notes: Molar concentration required to inhibit 50% of the activating delayed-rectifier K+ current in isolated guinea pig ventricular myocytes
pIC50: −log10 of the molar value.
parameter: pIC50

CC1(C)CCCC1CNC(=O)c1ccc(-c2nc(CC3CC3)no2)cc1 (single isomer, unassigned; form 2) = 7.74

(1) CC1(C)CCCC1CNC(=O)c1ccc(-c2nc(CC3CC3)no2)cc1 (single isomer, unassigned; form 1)
(2) CC(C)(C)CCNC(=O)c1ccc(-c2ccccc2)cc1
Enquiry: Sorting ascending by pIC50, which comes first: 1 or 2 ? Answer by stating the label of the chosen item.
Return: 2
(2: 6.27, 1: 7.64)

###

# assay notes: Compound was evaluated for half life period when administered intravenously
# Type: ADME, organism-based
# measurement conditions: in vivo, iv
parameter: half-life (h)

CCCCc1noc(-c2ccc(C(=O)NC[C@H]3CCCC3(C)C)cc2)n1 = 4.2
CC1(C)CCCC1CNC(=O)c1ccc(-c2noc(CCC(F)(F)F)n2)cc1 (single isomer, unassigned; form 2) = 3.2

###

# target system: Potassium voltage-gated channel subfamily KQT member 1 (Cavia porcellus, UniProt O70344)
# assay notes: Molar concentration required to inhibit 50% of the activating delayed-rectifier K+ current in isolated guinea pig ventricular myocytes
pIC50: −log10 of the molar value.
parameter: pIC50

Cc1noc(-c2ccc(C(=O)NCC3CCCC3(C)C)cc2)n1 (stereo in doubt; 21(B)) = 6.24
CN1C(=O)[C@H](NC(=O)/C=C/c2ccc(Cl)cc2Cl)N=C(c2ccccc2)c2ccccc21 = 7.51
CCCCCCOc1ccc(C(=O)NCC2CCCC2(C)C)cc1 (single isomer, unassigned; form 2) = 6.80
CCCc1noc(-c2ccc(C(=O)NCC3CCCC3(C)C)cc2)n1 (single isomer, unassigned; form 1) = 7.57
CC1(C)CCCC1CNC(=O)c1ccc(-c2noc(CCC(F)(F)F)n2)cc1 (single isomer, unassigned; form 2) = 7.40

(P) CCCCCCOc1ccc(C(=O)NCC2CCCC2(C)C)cc1 (single isomer, unassigned; form 1)
(Q) CCCCCCOc1ccc(C(=O)CCN2CCCCC2)cc1
Enquiry: Could you please tell me which of these two has the higher pIC50: P or Q ? Answer by stating the label of the chosen item.
Return: P

(I) CCCCCCOc1ccc(C(=O)NCCC(C)(C)C)cc1
(II) CC(C)(C)CCNC(=O)c1ccc(-c2nc(-c3ccccc3)no2)cc1
Enquiry: Sorting ascending by pIC50, which comes first: I or II ? Answer by stating the label of the chosen item.
Return: I
(I: 6.60, II: 6.89)
